Test system: Rh18 complex spheroid viability, percent test/control
Test Method Notes: Anticancer human tumor Rh18 cell line growth inhibition [Asc];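 further: spheroids exposed to compound for 7 days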;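 on viability, T/C: 100% = DMSO vehicle control wells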
Condition Parameters: second compound 0.01 µM; first compound 0.00316 µM; stronger effect = lower value
Label key: met means viability, T/C under 60%; not met means viability, T/C of 60% or more.

Solved entries (count: 4):
O=C(c1ccc(F)c(F)c1Nc1ccc(I)cc1F)N1CC(O)([C@@H]2CCCCN2)C1 + CNC(C)C(=O)NC1CN(S(=O)(=O)c2cccc(S(=O)(=O)N3CCC4CCC(C(=O)NC(c5ccccc5)c5ccccc5)N4C(=O)C(NC(=O)C(C)NC)C3)c2)CCC2CCC(C(=O)NC(c3ccccc3)c3ccccc3)N2C1=O    met
Cn1ncnc1[C@H]1c2n[nH]c(=O)c3cc(F)cc(c23)N[C@@H]1c1ccc(F)cc1 + CNC(C)C(=O)NC1CN(S(=O)(=O)c2cccc(S(=O)(=O)N3CCC4CCC(C(=O)NC(c5ccccc5)c5ccccc5)N4C(=O)C(NC(=O)C(C)NC)C3)c2)CCC2CCC(C(=O)NC(c3ccccc3)c3ccccc3)N2C1=O    met
COc1c(OCCCN2CCOCC2)ccc2c3n(c(=NC(=O)c4cnc(N)nc4)nc12)CCN3 + CNC(C)C(=O)NC1CN(S(=O)(=O)c2cccc(S(=O)(=O)N3CCC4CCC(C(=O)NC(c5ccccc5)c5ccccc5)N4C(=O)C(NC(=O)C(C)NC)C3)c2)CCC2CCC(C(=O)NC(c3ccccc3)c3ccccc3)N2C1=O    met
CCN1CCN(Cc2ccc(Nc3ncc(F)c(-c4cc(F)c5nc(C)n(C(C)C)c5c4)n3)nc2)CC1 + CNC(C)C(=O)NC1CN(S(=O)(=O)c2cccc(S(=O)(=O)N3CCC4CCC(C(=O)NC(c5ccccc5)c5ccccc5)N4C(=O)C(NC(=O)C(C)NC)C3)c2)CCC2CCC(C(=O)NC(c3ccccc3)c3ccccc3)N2C1=O    met

Here is another compound to look at.
Query :: Item NC1CCC(NC2CC2c2ccccc2)CC1 (stereo not given) + CNC(C)C(=O)NC1CN(S(=O)(=O)c2cccc(S(=O)(=O)N3CCC4CCC(C(=O)NC(c5ccccc5)c5ccccc5)N4C(=O)C(NC(=O)C(C)NC)C3)c2)CCC2CCC(C(=O)NC(c3ccccc3)c3ccccc3)N2C1=O : viability, T/C beneath 60%, strictly?
Result :: not met

---

Catalogue of pIC50 readings, one per entry.
Test system: Rh18 complex spheroid viability, percent test/control
Test Method Notes: Anticancer human tumor Rh18 cell line growth inhibition [Asc];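 further: spheroids exposed to compound for 7 days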
Condition Parameters: curve of first compound; second compound 3 µM
pIC50: −log10 of the molar value.

C=CC(=O)N1CCN(c2nc(=O)n(-c3c(C)ccnc3C(C)C)c3nc(-c4c(O)cccc4F)c(F)cc23)C(C)C1 (configuration not stated) + CCN1C(C(=O)NC23CCC(C(=O)O)(CC2)CC3)C(c2cccc(Cl)c2F)C2(C(=O)Nc3cc(Cl)ccc32)C12CCCCC2    > 7.50
O=C(c1ccc(F)c(F)c1Nc1ccc(I)cc1F)N1CC(O)([C@@H]2CCCCN2)C1 + CCN1C(C(=O)NC23CCC(C(=O)O)(CC2)CC3)C(c2cccc(Cl)c2F)C2(C(=O)Nc3cc(Cl)ccc32)C12CCCCC2    > 8.50
C#Cc1c(F)ccc2cc(O)cc(-c3ncc4c(N5CC6CCC(C5)N6)nc(OCC56CCCN5CC(F)C6)nc4c3F)c12 (configuration not stated) + CCN1C(C(=O)NC23CCC(C(=O)O)(CC2)CC3)C(c2cccc(Cl)c2F)C2(C(=O)Nc3cc(Cl)ccc32)C12CCCCC2    > 7.50

Query :: GET pIC50 where system = Rh18 complex spheroid viability, percent test/control and item = CCN1CCN(Cc2ccc(Nc3ncc(F)c(-c4cc(F)c5nc(C)n(C(C)C)c5c4)n3)nc2)CC1 + CCN1C(C(=O)NC23CCC(C(=O)O)(CC2)CC3)C(c2cccc(Cl)c2F)C2(C(=O)Nc3cc(Cl)ccc32)C12CCCCC2
Result :: > 8.50

Query :: GET pIC50 where system = Rh18 complex spheroid viability, percent test/control and item = CNC(C)C(=O)NC1CN(S(=O)(=O)c2cccc(S(=O)(=O)N3CCC4CCC(C(=O)NC(c5ccccc5)c5ccccc5)N4C(=O)C(NC(=O)C(C)NC)C3)c2)CCC2CCC(C(=O)NC(c3ccccc3)c3ccccc3)N2C1=O (configuration not stated) + CCN1C(C(=O)NC23CCC(C(=O)O)(CC2)CC3)C(c2cccc(Cl)c2F)C2(C(=O)Nc3cc(Cl)ccc32)C12CCCCC2
Result :: > 8.50

Query :: GET pIC50 where system = Rh18 complex spheroid viability, percent test/control and item = Cn1ncnc1[C@H]1c2n[nH]c(=O)c3cc(F)cc(c23)N[C@@H]1c1ccc(F)cc1 + CCN1C(C(=O)NC23CCC(C(=O)O)(CC2)CC3)C(c2cccc(Cl)c2F)C2(C(=O)Nc3cc(Cl)ccc32)C12CCCCC2
Result :: > 9.50

Query :: GET pIC50 where system = Rh18 complex spheroid viability, percent test/control and item = Cc1nc(N2CCC3(CC2)COC(C)C3N)c(CO)nc1Sc1ccnc(N)c1Cl (configuration not stated) + CCN1C(C(=O)NC23CCC(C(=O)O)(CC2)CC3)C(c2cccc(Cl)c2F)C2(C(=O)Nc3cc(Cl)ccc32)C12CCCCC2
Result :: > 8.02

Query :: GET pIC50 where system = Rh18 complex spheroid viability, percent test/control and item = O=C(c1cc(Cc2n[nH]c(=O)c3ccccc23)ccc1F)N1CCN(C(=O)C2CC2)CC1 + CCN1C(C(=O)NC23CCC(C(=O)O)(CC2)CC3)C(c2cccc(Cl)c2F)C2(C(=O)Nc3cc(Cl)ccc32)C12CCCCC2
Result :: > 7.50

Query :: GET pIC50 where system = Rh18 complex spheroid viability, percent test/control and item = NC1CCC(NC2CC2c2ccccc2)CC1 (configuration not stated) + CCN1C(C(=O)NC23CCC(C(=O)O)(CC2)CC3)C(c2cccc(Cl)c2F)C2(C(=O)Nc3cc(Cl)ccc32)C12CCCCC2
Result :: > 9.50

Query :: GET pIC50 where system = Rh18 complex spheroid viability, percent test/control and item = NC(=O)C(=Cn1cnc(-c2cc(C(F)(F)F)cc(C(F)(F)F)c2)n1)c1cncnc1 + CCN1C(C(=O)NC23CCC(C(=O)O)(CC2)CC3)C(c2cccc(Cl)c2F)C2(C(=O)Nc3cc(Cl)ccc32)C12CCCCC2
Result :: > 9.02

Query :: GET pIC50 where system = Rh18 complex spheroid viability, percent test/control and item = COc1c(OCCCN2CCOCC2)ccc2c3n(c(=NC(=O)c4cnc(N)nc4)nc12)CCN3 + CCN1C(C(=O)NC23CCC(C(=O)O)(CC2)CC3)C(c2cccc(Cl)c2F)C2(C(=O)Nc3cc(Cl)ccc32)C12CCCCC2
Result :: > 8.50

Query :: GET pIC50 where system = Rh18 complex spheroid viability, percent test/control and item = C=C(F)C(=O)N1CCN(c2nc(OCC3CCCN3C)nc3c2CCN(c2cccc4cccc(Cl)c24)C3)CC1CC#N (configuration not stated) + CCN1C(C(=O)NC23CCC(C(=O)O)(CC2)CC3)C(c2cccc(Cl)c2F)C2(C(=O)Nc3cc(Cl)ccc32)C12CCCCC2
Result :: > 7.50

Attribution: PubChem BioAssay AID1963431
